Across several studies, compounds have been characterized by their IC50 on Proto-oncogene tyrosine-protein kinase Src (Homo sapiens, UniProt P12931); a selection follows.
# number only, unit nM dropped from output

API: value(readout= IC50, system= Proto-oncogene tyrosine-protein kinase Src (Homo sapiens, UniProt P12931), query= N#CC1=C(N)Oc2ccc3ccccc3c2C1c1cccc(O)c1 (stereo not shown) )
33800

API: value(readout= IC50, system= Proto-oncogene tyrosine-protein kinase Src (Homo sapiens, UniProt P12931), query= COc1cc2nc(-c3ccc(C)cc3)cc(OCCCn3ccnc3)c2cc1OC )
3490

API: value(readout= IC50, system= Proto-oncogene tyrosine-protein kinase Src (Homo sapiens, UniProt P12931), query= NC(=O)C(Cc1ccc(O)cc1)NC(=O)CN(CCCCCCO)C(=O)C1Cc2ccccc2N1C(=O)CCc1ccc(O)cc1 (stereo not shown) )
26000

API: value(readout= IC50, system= Proto-oncogene tyrosine-protein kinase Src (Homo sapiens, UniProt P12931), query= COc1cc2nc(-c3ccc(C)cc3)cc(OCCCNC3CCCCC3)c2cc1OC )
1920

API: value(readout= IC50, system= Proto-oncogene tyrosine-protein kinase Src (Homo sapiens, UniProt P12931), query= N#CC1=C(N)Oc2ccc3ccccc3c2C1c1cccc(Cl)c1 (stereo not shown) )
41700

API: value(readout= IC50, system= Proto-oncogene tyrosine-protein kinase Src (Homo sapiens, UniProt P12931), query= NC(=O)CN(CCc1ccc(O)cc1)C(=O)[C@H](CC(=O)O)NC(=O)c1ccc(CN(CC2CC2)C(=O)CCO)cc1 )
48000

API: value(readout= IC50, system= Proto-oncogene tyrosine-protein kinase Src (Homo sapiens, UniProt P12931), query= COc1cc2nc(-c3ccc(C)cc3)cc(OCCCNC3CCN(C)CC3)c2cc1OC )
980

API: value(readout= IC50, system= Proto-oncogene tyrosine-protein kinase Src (Homo sapiens, UniProt P12931), query= COc1cc2nc(-c3ccc(Cl)cc3)cc(OCCCN3CCN(C)CC3)c2cc1OC )
783

API: value(readout= IC50, system= Proto-oncogene tyrosine-protein kinase Src (Homo sapiens, UniProt P12931), query= Cc1c(-c2c(F)cc(C(N)=O)c3[nH]c4c(c23)CC[C@H](C(C)(C)O)C4)cccc1-n1c(=O)c2cccc(F)c2n(C)c1=O )
1110

API: value(readout= IC50, system= Proto-oncogene tyrosine-protein kinase Src (Homo sapiens, UniProt P12931), query= CCc1nc2nc(Nc3ccc4nc(OCCN5CCOCC5)ccc4c3)nc(NC(C)(C)C)c2[nH]1 )
1700

API: value(readout= IC50, system= Proto-oncogene tyrosine-protein kinase Src (Homo sapiens, UniProt P12931), query= COc1cc2nc(-c3ccc(Cl)cc3)cc(OCCCn3ccnc3)c2cc1OC )
198

API: value(readout= IC50, system= Proto-oncogene tyrosine-protein kinase Src (Homo sapiens, UniProt P12931), query= Cc1nc(Nc2ncc(C(=O)Nc3cc(NC(=O)c4cccc(C(F)(F)F)c4)ccc3C)s2)cc(N2CCN(CCO)CC2)n1 )
323

API: value(readout= IC50, system= Proto-oncogene tyrosine-protein kinase Src (Homo sapiens, UniProt P12931), query= Cc1ccc(Nc2ncc3c(n2)N(C)C(=O)N(c2cc(C(=O)N[C@H](C(=O)N4CCC[C@@H]4C(=O)N[C@H](C(=O)N[C@H](C)c4ccccc4)C(C)C)C(C)C)ccc2C)C3)cn1 )
5630

API: value(readout= IC50, system= Proto-oncogene tyrosine-protein kinase Src (Homo sapiens, UniProt P12931), query= COc1cc2nc(-c3ccc(Cl)cc3)cc(OCCCNCC3CCCO3)c2cc1OC (stereo not shown) )
408

API: value(readout= IC50, system= Proto-oncogene tyrosine-protein kinase Src (Homo sapiens, UniProt P12931), query= NC(=O)CN(CCCCCCO)C(=O)c1ccc(CNC(=O)[C@H](Cc2ccc(O)cc2)NC(=O)CCc2ccc(O)cc2)cc1 )
18000

API: value(readout= IC50, system= Proto-oncogene tyrosine-protein kinase Src (Homo sapiens, UniProt P12931), query= COc1cc2nc(-c3ccc(Cl)cc3)cc(OCCCNC3CCN(C)CC3)c2cc1OC )
1500

API: value(readout= IC50, system= Proto-oncogene tyrosine-protein kinase Src (Homo sapiens, UniProt P12931), query= COc1cc2nc(-c3ccc(-c4ccco4)cc3)cc(OCCCN3CCN(C)CC3)c2cc1OC )
4540

API: value(readout= IC50, system= Proto-oncogene tyrosine-protein kinase Src (Homo sapiens, UniProt P12931), query= N#CC1=C(N)Oc2c(ccc3ccccc23)C1c1ccccc1Cl (stereo not shown) )
34700
